Values from paper PMC3518660

studySystem: recombinant soluble integrin αvβ3 (UniProt P06756 31-987; P05106 27-718)
Sequence (P06756 31-987, chain 1 of 2): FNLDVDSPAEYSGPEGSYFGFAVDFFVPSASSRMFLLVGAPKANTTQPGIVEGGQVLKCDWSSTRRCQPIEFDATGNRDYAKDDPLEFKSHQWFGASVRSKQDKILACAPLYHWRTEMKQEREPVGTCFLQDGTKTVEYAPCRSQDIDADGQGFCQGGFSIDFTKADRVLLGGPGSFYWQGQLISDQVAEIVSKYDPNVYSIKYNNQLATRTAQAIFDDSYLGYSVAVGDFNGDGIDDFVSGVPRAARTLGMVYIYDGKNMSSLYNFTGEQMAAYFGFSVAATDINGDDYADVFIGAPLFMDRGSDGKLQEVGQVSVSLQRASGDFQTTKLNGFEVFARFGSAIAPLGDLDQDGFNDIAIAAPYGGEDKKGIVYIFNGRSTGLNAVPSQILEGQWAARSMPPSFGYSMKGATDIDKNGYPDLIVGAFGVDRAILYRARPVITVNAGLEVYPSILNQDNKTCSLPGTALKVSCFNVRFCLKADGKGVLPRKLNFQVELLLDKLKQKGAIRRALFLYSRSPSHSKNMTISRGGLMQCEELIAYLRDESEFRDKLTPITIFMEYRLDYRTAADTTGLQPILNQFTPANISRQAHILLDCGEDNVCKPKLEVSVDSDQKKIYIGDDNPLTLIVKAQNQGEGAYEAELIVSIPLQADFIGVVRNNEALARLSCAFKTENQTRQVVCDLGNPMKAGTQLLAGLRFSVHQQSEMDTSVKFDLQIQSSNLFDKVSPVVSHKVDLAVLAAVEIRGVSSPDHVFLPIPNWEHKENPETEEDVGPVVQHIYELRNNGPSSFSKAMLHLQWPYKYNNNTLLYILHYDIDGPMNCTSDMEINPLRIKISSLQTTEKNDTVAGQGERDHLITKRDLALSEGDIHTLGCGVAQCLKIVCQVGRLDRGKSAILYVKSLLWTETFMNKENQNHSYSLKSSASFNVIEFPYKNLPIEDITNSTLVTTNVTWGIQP
Sequence (P05106 27-718, chain 2 of 2): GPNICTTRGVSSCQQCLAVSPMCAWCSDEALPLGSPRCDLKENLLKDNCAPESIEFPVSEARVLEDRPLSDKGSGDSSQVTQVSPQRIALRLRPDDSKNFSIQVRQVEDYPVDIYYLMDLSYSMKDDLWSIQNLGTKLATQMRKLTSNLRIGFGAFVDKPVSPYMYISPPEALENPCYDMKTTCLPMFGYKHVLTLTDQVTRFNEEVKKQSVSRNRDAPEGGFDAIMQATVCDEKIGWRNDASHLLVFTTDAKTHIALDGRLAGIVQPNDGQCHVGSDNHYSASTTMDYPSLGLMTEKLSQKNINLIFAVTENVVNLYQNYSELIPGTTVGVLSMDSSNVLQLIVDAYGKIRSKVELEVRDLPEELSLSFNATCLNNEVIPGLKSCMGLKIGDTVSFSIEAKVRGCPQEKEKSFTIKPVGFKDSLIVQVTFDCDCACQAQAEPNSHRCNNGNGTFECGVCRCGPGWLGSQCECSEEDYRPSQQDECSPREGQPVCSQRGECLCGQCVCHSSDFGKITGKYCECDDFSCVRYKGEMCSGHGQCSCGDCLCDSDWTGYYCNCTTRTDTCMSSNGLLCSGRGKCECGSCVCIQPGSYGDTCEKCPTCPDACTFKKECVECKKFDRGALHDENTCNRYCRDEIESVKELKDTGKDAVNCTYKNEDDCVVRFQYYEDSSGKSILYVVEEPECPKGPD
experimentDescription: SPR
recordedEndpoint: Kd (nM)
Numbers only, in nM.

What does the record list as Kd for chemokine domain of fractalkine (FKN-CD), wild type, 6His-tagged (domain or fragment, human) QHHGVTKCNITCSKMTSKIPVALLIHYQQNQASCGKRAIILETRQHRLFCADPKEQWVKDAMQHLDRQAAALTRNG ? 11
